The reported measurements were obtained from patent US20100298141A1.

Test system: tall waterhemp
EXPERIMENT: Test G preemergence test
Type: in vivo, Amaranthus tuberculatos
RUN_CONDITIONS: 31 g ai/ha, scale 0 to 100
PROPERTY: Plant response rating, Waterhemp

- Cc1cc[n+]([O-])c(S(=O)(=O)C(C)c2c(C(F)(F)F)nn(C)c2Cl)c1 (racemic): 0
- Cn1nc(C(F)(F)F)c(CS(=O)(=O)c2cccc[n+]2[O-])c1OC(F)F: 80
- Cc1cc[n+]([O-])c(S(=O)(=O)Cc2c(C(F)(F)F)nn(C)c2OC(F)F)c1: 20
- Cn1nc(C(F)(F)F)c(CS(=O)(=O)c2ccc(Cl)c[n+]2[O-])c1OC(F)F: 15
- Cn1nc(C(F)(F)F)c(C[S+]([O-])c2cccc[n+]2[O-])c1OC(F)F (centres unmarked): 0

----------
System: common purslane
EXPERIMENT: Test F preemergence test
Assay type: in vivo, Portulaca oleracea
RUN_CONDITIONS: 16 g ai/ha, preemergence; scale 0 to 100
Source text: Seeds of plant species selected from bermudagrass (Cynodon dactylon), Surinam grass (Brachiaria decumbens), large crabgrass (Digitaria sanguinalis), green foxtail (Setaria viridis), goosegrass (Eleusine indica), johnsongrass (Sorghum halepense), kochia (Kochia scoparia), pitted morningglory (Ipomoea lacunosa), purple nutsedge (Cyperus rotundus), common ragweed (Ambrosia elation), mustard (Brassica nigra), guineagrass (Panicum maximum), […] […]
Entries and their Plant response rating, Purslane
PROPERTY: Plant response rating, Purslane

• Cn1nc(C(F)(F)F)c(C[S+]([O-])c2ccc(F)c[n+]2[O-])c1OCC(F)(F)F (stereo not drawn) = 0
• CCn1nc(C(F)(F)F)c(CS(=O)(=O)c2cccc[n+]2[O-])c1OCC(F)(F)F = 0
• Cn1nc(C(F)(F)C(F)(F)F)c(C[S+]([O-])c2cccc[n+]2[O-])c1OCC(F)(F)F (stereo not drawn) = 30
• CCn1nc(C(F)(F)F)c(C[S+]([O-])c2cc(C)cc[n+]2[O-])c1OCC(F)(F)F (racemic) = 0
• Cn1nc(OC(F)F)c(CS(=O)(=O)c2cccc[n+]2[O-])c1C(F)(F)F = 0
• CC(Oc1c(CS(=O)(=O)c2cccc[n+]2[O-])c(C(F)(F)F)nn1C)C(F)(F)F (stereo not drawn) = 0

----------
Entries and their Sandbur plant response rating
Tested on: southern sandbur
EXPERIMENT: Test F preemergence test
Type: in vivo, Cenchrus echinatus
RUN_CONDITIONS: 62 g ai/ha, Preemergence; scale 0 to 100
PROPERTY: Sandbur plant response rating

- Cc1cc[n+]([O-])c(S(=O)(=O)Cc2c(C(F)(F)F)nn(C)c2OC(F)F)c1: 100
- Cn1nc(C(F)(F)F)c(C[S+]([O-])c2ccc(Cl)c[n+]2[O-])c1OC(F)F (centres unmarked): 100
- Cc1cc[n+]([O-])c(S(=O)(=O)Cc2c(C(F)(F)F)nn(C)c2Cl)c1: 90
- CC(c1c(C(F)(F)F)nn(C)c1OC(F)F)S(=O)(=O)c1cccc[n+]1[O-] (centres unmarked): 100
- Cc1cc[n+]([O-])c(S(=O)(=O)C(Cl)c2c(C(F)(F)F)nn(C)c2Cl)c1 (racemic): 75

----------
Entries and their Bluegrass plant response rating
System: annual bluegrass
EXPERIMENT: Test F preemergence test
Assay type: in vivo, Poa annua
RUN_CONDITIONS: 62 g ai/ha, Preemergence; scale 0 to 100
PROPERTY: Bluegrass plant response rating

* Cn1nc(C(F)(F)F)c(CS(=O)(=O)c2cccc[n+]2[O-])c1OC(F)F [Compound 4] | 75
* Cn1nc(C(F)(F)C(F)(F)F)c(C[S+]([O-])c2cccc[n+]2[O-])c1OCC(F)(F)F (centres unmarked) [Compound 79] | 90
* Cn1nc(C(F)(F)F)c(C[S+]([O-])c2ccc(F)c[n+]2[O-])c1OCC(F)(F)F (centres unmarked) [Compound 67] | 80
* Cc1cc[n+]([O-])c(S(=O)(=O)C(Cl)c2c(C(F)(F)F)nn(C)c2Cl)c1 (racemic) [Compound 22] | 30
* Cc1cc[n+]([O-])c(S(=O)(=O)Cc2c(C(F)(F)F)nn(C)c2OC(F)F)c1 [Compound 2] | 25
